species on record: Rattus norvegicus; experiment: In vitro Growth hormone releasing activity in rat pituitary cells; weakly active at 1 uM; type: functional; conditions: Pituitary gland cell, read-out: ED50 (the source's name)
assay-metric: EC50

Per the records, this compound ( CC(C)(N)CC(=O)N[C@@H]1CCc2ccccc2N(Cc2ccc(-c3ccccc3)c(-c3nn[nH]n3)c2)C1=O ) has EC50 equal to > 1 µM

* * *

species: Rattus norvegicus; assay: In vitro Growth hormone releasing activity in rat pituitary cells; format: functional, Pituitary gland cell; conditions: Rattus norvegicus, Pituitary gland cell; read-out: ED50 (the source's name)
assay-metric: EC50 (nM)
Numbers only; they are read as nM.

Some solved entries appear below for comparison.
{"columns": ["compound", "readout-units", "EC50"],
 "data": [
  ["CC(C)(N)CC(=O)N[C@@H]1CCc2ccccc2N(Cc2ccccc2)C1=O", "nM", 7000],
  ["CC(C)(N)CC(=O)N[C@@H]1CCc2ccccc2N(Cc2ccc(-c3ccccc3-c3nn[nH]n3)cc2)C1=O", "nM", 60],
  ["C[C@@H](O)CNC(C)(C)CC(=O)N[C@@H]1CCc2ccccc2N(Cc2ccc(-c3ccccc3-c3nn[nH]n3)cc2)C1=O [L-692585]", "nM", 3]
]}

Per the records, this compound ( C[C@@H](O)CNC(C)(C)CC(=O)N[C@@H]1CCc2ccccc2N(CC2CCC(c3ccccc3-c3nn[nH]n3)CC2)C1=O (stereo partly specified) ) has EC50 equal to 75

Per the records, this compound ( CC(C)(N)CC(=O)N[C@@H]1CCc2ccccc2N(Cc2ccc(-c3ccccc3)cc2)C1=O ) has EC50 equal to 3000

Per the records, this compound ( CC(C)(N)CC(=O)N[C@@H]1CCc2ccccc2N(CC2CCC(c3ccccc3-c3nn[nH]n3)CC2)C1=O (stereo partly specified) ) has EC50 equal to 860
